studySystem: Botulinum neurotoxin type A (Clostridium botulinum)
testMethodNotes: Inhibition of Clostridium botulinum recombinant BoNT/A light chain at […] by reverse-phase HPLC analysis
Entries and their measured inhibition follow.
quantity: inhibition (%)

[[record]]
molecule = "COc1ccc(CNCCCNc2ccnc3cc(Cl)ccc23)cc1"
studysystem = "Botulinum neurotoxin type A (Clostridium botulinum)"
quantity = "inhibition"
numericresult = 14

[[record]]
molecule = "Clc1ccc2c(NCCNCc3cnccc3Cl)ccnc2c1"
studysystem = "Botulinum neurotoxin type A (Clostridium botulinum)"
quantity = "inhibition"
numericresult = 23

[[record]]
molecule = "CC(C)(C)c1ccc(CNCCCNc2ccnc3cc(Cl)ccc23)cc1"
studysystem = "Botulinum neurotoxin type A (Clostridium botulinum)"
quantity = "inhibition"
numericresult = 50.3

[[record]]
molecule = "CC(C)(C)c1ccc(CNCCNc2ccnc3cc(Cl)ccc23)cc1"
studysystem = "Botulinum neurotoxin type A (Clostridium botulinum)"
quantity = "inhibition"
numericresult = 47

[[record]]
molecule = "Clc1ccc2c(NCCCNCc3cccnc3)ccnc2c1"
studysystem = "Botulinum neurotoxin type A (Clostridium botulinum)"
quantity = "inhibition"
numericresult = 39.9

[[record]]
molecule = "Clc1ccc2c(NCCCNCc3ccc(Br)cc3)ccnc2c1"
studysystem = "Botulinum neurotoxin type A (Clostridium botulinum)"
quantity = "inhibition"
numericresult = 68

[[record]]
molecule = "Clc1ccc2c(NCCNCc3ccncc3)ccnc2c1"
studysystem = "Botulinum neurotoxin type A (Clostridium botulinum)"
quantity = "inhibition"
numericresult = 24

[[record]]
molecule = "Clc1ccc2c(NCCCNCc3ccncc3)ccnc2c1"
studysystem = "Botulinum neurotoxin type A (Clostridium botulinum)"
quantity = "inhibition"
numericresult = 42.3

[[record]]
molecule = "Clc1ccc2c(NCCNCc3ccccc3)ccnc2c1"
studysystem = "Botulinum neurotoxin type A (Clostridium botulinum)"
quantity = "inhibition"
numericresult = 52

[[record]]
molecule = "CCN(CC)CCCC(C)Nc1ccnc2cc(Cl)ccc12 (stereo not given) [CHLOROQUINE PHOSPHATE]"
studysystem = "Botulinum neurotoxin type A (Clostridium botulinum)"
quantity = "inhibition"
numericresult = 7

[[record]]
molecule = "COc1ccncc1CNCCCNc1ccnc2cc(Cl)ccc12"
studysystem = "Botulinum neurotoxin type A (Clostridium botulinum)"
quantity = "inhibition"
numericresult = 43.2

[[record]]
molecule = "COc1ccc(CNCCNc2ccnc3cc(Cl)ccc23)cc1"
studysystem = "Botulinum neurotoxin type A (Clostridium botulinum)"
quantity = "inhibition"
numericresult = 18

[[record]]
molecule = "O[C@@H](c1cc(C(F)(F)F)nc2c(C(F)(F)F)cccc12)[C@H]1CCCCN1 (racemic)"
studysystem = "Botulinum neurotoxin type A (Clostridium botulinum)"
quantity = "inhibition"
numericresult = 28

[[record]]
molecule = "COc1ccncc1CNCCNc1ccnc2cc(Cl)ccc12"
studysystem = "Botulinum neurotoxin type A (Clostridium botulinum)"
quantity = "inhibition"
numericresult = 19

[[record]]
molecule = "Fc1ccc(CNCCNc2ccnc3cc(Cl)ccc23)cc1"
studysystem = "Botulinum neurotoxin type A (Clostridium botulinum)"
quantity = "inhibition"
numericresult = 68

[[record]]
molecule = "Clc1ccc2c(NCCNCc3ccc(Br)cc3)ccnc2c1"
studysystem = "Botulinum neurotoxin type A (Clostridium botulinum)"
quantity = "inhibition"
numericresult = 69

[[record]]
molecule = "Clc1ccc2c(NCCCNCc3cnccc3Cl)ccnc2c1"
studysystem = "Botulinum neurotoxin type A (Clostridium botulinum)"
quantity = "inhibition"
numericresult = 35.9

[[record]]
molecule = "Clc1ccc2c(NCCNCc3cccnc3)ccnc2c1"
studysystem = "Botulinum neurotoxin type A (Clostridium botulinum)"
quantity = "inhibition"
numericresult = 25

[[record]]
molecule = "Fc1ccc(CNCCCNc2ccnc3cc(Cl)ccc23)cc1"
studysystem = "Botulinum neurotoxin type A (Clostridium botulinum)"
quantity = "inhibition"
numericresult = 50.1

[[record]]
molecule = "Clc1ccc2c(NCCCNCc3ccccc3)ccnc2c1"
studysystem = "Botulinum neurotoxin type A (Clostridium botulinum)"
quantity = "inhibition"
numericresult = 51.8


Values were extracted from ChEMBL document CHEMBL2401699.
